Source: the supplement of paper PMC10567573

B1: TRIM14 (parent)
chain: YARTPTLDPDTMHARLRLSADRLT

Variants of: B1
Assay: protein stability index of a GFP-peptide fusion (GPS, HEK-293T) (PSI 1-6); higher = more stable;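 note: lentivirally expressed fusions sorted by FACS into six bins by GFP to DsRed ratio, PSI derived from sequencing read proportions per bin multiplied by bin number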
Conditions: c terminus: a fixed tail appended
test.readout: protein stability index
Give bare numbers.

Could I get protein stability index for every one of these entries?
1. L16R
2. L18W
3. T6C
4. A14R

Response given:
1: 3.27; 2: 2.18; 3: 2.34; 4: 2.13
